Hey, just so you know, these numbers are from patent US20200339680A1.

# System Under Test: T1, human TMEM106B (human, UniProt Q9NUM4 2-274)
# T1 construct: full-length, transiently expressed on HEK293 cells, or natively expressed on HeLa, U251 and A549 cells (the cell is named under assay); also the source of the Pepscan peptides; also called huTMEM106B; huTMEM
# Assay Method Text: FACS HEK+huTMEM 0.1 ug/ml (2nd column so headed);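 also: flow cytometry binding of purified anti-TMEM106B mouse IgG to HEK293 cells transiently transfected with TMEM106B, read as median fluorescence intensity on live (propidium iodide-negative) cells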
Returns: string. Value is true (1) if measured MFI is below 1000 MFI, and false (0) if it is greater than or equal to it.

{"Binder": "TM-50 (antibody, V domains shown, mouse IgG (hybridoma)) VH: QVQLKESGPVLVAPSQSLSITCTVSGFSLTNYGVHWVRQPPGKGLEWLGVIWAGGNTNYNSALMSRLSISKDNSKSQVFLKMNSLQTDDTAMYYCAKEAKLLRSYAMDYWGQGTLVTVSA VL: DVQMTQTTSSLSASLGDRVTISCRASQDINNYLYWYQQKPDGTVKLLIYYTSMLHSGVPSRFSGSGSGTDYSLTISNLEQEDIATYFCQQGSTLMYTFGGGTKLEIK", "Class Label": "true (1)"}
{"Binder": "TM-22 (antibody, V domains shown) VH: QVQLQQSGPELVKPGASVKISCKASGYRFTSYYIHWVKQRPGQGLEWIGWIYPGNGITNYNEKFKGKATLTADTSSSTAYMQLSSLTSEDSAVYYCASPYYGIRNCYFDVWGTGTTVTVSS VL: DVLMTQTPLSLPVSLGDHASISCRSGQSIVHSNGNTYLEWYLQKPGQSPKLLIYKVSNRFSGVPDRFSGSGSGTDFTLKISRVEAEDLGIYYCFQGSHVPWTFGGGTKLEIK", "Class Label": "true (1)"}
{"Binder": "TM-8 (antibody, V domains shown, mouse IgG (hybridoma)) VH: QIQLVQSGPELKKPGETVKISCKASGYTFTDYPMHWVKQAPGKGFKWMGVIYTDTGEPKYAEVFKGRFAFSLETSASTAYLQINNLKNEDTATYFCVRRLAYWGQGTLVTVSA VL: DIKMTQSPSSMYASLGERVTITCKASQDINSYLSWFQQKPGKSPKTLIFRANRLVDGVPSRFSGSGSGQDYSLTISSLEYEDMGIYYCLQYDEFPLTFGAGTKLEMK", "Class Label": "true (1)"}
{"Binder": "TM-27 (antibody, V domains shown) VH: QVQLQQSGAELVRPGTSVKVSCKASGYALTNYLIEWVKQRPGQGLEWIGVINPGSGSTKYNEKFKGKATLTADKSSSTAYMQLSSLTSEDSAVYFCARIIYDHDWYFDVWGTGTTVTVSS VL: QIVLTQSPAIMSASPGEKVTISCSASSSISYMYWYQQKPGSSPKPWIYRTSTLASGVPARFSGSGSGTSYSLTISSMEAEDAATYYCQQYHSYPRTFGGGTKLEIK", "Class Label": "true (1)"}
{"Binder": "TM-11 (antibody, V domains shown) VH: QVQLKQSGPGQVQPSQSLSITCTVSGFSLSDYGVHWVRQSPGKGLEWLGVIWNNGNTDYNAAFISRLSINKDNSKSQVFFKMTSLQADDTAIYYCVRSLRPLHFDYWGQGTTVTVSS VL: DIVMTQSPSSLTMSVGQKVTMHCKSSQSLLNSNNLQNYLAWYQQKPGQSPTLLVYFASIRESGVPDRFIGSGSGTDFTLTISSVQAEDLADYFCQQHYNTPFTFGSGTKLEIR", "Class Label": "false (0)"}
{"Binder": "TM-28 (antibody, V domains shown) VH: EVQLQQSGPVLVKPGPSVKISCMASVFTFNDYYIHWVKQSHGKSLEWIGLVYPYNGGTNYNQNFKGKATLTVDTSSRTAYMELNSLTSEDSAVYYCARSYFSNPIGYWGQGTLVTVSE VL: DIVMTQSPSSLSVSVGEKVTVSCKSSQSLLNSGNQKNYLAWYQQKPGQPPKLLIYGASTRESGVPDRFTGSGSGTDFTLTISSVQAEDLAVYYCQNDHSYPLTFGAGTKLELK", "Class Label": "false (0)"}
{"Binder": "TM-18 (antibody, V domains shown) VH: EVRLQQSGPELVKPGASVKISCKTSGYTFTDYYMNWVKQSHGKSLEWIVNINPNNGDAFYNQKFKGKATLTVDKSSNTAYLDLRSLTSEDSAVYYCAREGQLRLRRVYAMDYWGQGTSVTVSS VL: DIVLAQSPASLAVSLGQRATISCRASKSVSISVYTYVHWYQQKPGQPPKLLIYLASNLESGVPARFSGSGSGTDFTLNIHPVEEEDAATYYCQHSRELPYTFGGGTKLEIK", "Class Label": "false (0)"}
{"Binder": "TM-17 (antibody, V domains shown) VH: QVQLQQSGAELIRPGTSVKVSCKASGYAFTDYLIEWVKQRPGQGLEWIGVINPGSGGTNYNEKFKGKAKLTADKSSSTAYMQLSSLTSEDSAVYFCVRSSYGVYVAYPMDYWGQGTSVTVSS VL: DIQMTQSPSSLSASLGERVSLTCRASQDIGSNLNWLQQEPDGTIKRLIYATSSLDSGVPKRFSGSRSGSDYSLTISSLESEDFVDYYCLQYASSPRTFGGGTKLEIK", "Class Label": "false (0)"}
{"Binder": "TM-19 (antibody, V domains shown) VH: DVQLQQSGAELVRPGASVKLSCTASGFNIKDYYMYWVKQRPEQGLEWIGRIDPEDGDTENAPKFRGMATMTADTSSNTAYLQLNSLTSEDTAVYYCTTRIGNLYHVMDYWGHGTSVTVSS VL: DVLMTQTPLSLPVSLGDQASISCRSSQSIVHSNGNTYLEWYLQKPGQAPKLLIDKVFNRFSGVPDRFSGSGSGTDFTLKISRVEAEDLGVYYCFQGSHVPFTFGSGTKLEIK", "Class Label": "false (0)"}
